- Tested on: RAW 264.7 cells
- ASSAY DETAILS: Cell viability (CellTiter 96 AQueous One) of LPS-challenged RAW 264.7 cells
- Format: cell-based, mouse
- Set-up: key: NS=not significant; a “+” sign=anti-inflammatory or increased cell numbers; a “−” sign=cell toxicity or pro-inflammatory
- ASSAY SETUP: 1 μM
MEASURED PARAMETER: Viability

Example entries and their recorded answers appear below.
// fetch Viability given entry O=C1c2cccc([N+](=O)[O-])c2CN1CC12CC3CC(CC(C3)C1)C2 [Compound 78] NS

// fetch Viability given entry CC1(C)[C@@H]2CC[C@]1(C)[C@@H](N1Cc3c(cccc3[N+](=O)[O-])C1=O)C2 [Compound 96] −

// fetch Viability given entry Nc1cccc2c1CN(C13CC4CC(CC(C4)C1)C3)C2=O [Compound 77] NS

// fetch Viability given entry C[C@H]1[C@H](N2Cc3c(N)cccc3C2=O)C[C@@H]2C[C@H]1C2(C)C [Compound 91] NS

// fetch Viability given entry O=C1c2cccc([N+](=O)[O-])c2CN1[C@H]1C[C@H]2CC[C@@H]1C2 [Compound 101] −

// fetch Viability given entry O=C1NC(=S)CCC1N1C(=O)c2cccc([N+](=O)[O-])c2C1=O (centres unmarked) [Compound 7] NS

// fetch Viability given entry CC(N1Cc2c(cccc2[N+](=O)[O-])C1=O)C12CC3CC(CC(C3)C1)C2 (centres unmarked) [Compound 80] NS

Alright, here's another compound for you.
// fetch Viability given entry CC1(C)[C@@H]2CC[C@]1(C)[C@@H](N1Cc3c(N)cccc3C1=O)C2 [Compound 97] NS

###

- System: RAW 264.7 cells
- ASSAY DETAILS: Cell viability (CellTiter 96 AQueous One) of LPS-challenged RAW 264.7 cells
- Assay type: cell-based, mouse
- Parameters: key: NS=not significant; a “+” sign=anti-inflammatory or increased cell numbers; a “−” sign=cell toxicity or pro-inflammatory
- ASSAY SETUP: 1 μM
- Method: The CellTiter 96® AQueous One Solution Cell Proliferation Assay (Promega, Madison, Wis.) is routinely used as an assay of cell proliferation, and was used according to the manufacturer's recommendations. Changes in cellular health status are determined by use of indirect measures related to the formation of a colored tetrazolium dye product that can be measured spectrophotometrically at 490 nm λ. […] Optical densities (expressed as O.D.s) were measured after various incubations. […]
MEASURED PARAMETER: Viability

Example entries and their recorded answers appear below.
// fetch Viability given entry O=C1c2cccc([N+](=O)[O-])c2CN1C1C2CC3CC(C2)CC1C3 (stereo not drawn) [Compound 82] NS

// fetch Viability given entry O=C1CCC(N2Cc3ccccc3C2=O)C(=O)N1CSC(=S)N1CCCCC1 (stereo not drawn) [Compound 53] −

// fetch Viability given entry CC1(C)[C@@H]2CC[C@]1(C)[C@@H](N1C=C3C(=CC=C/C3=N\OO)C1=O)C2 [Compound 98] NS

// fetch Viability given entry O=C1c2ccccc2CN1C12CC3CC(CC1C3)C2 [Compound 73] NS

// fetch Viability given entry O=C1c2ccccc2CN1C1C2CC3CC(C2)CC1C3 (stereo not drawn) [Compound 72] +

Next:
// fetch Viability given entry CC1(C)S[C@@H]2[C@H](N3Cc4ccccc4C3=O)C(=O)N2[C@H]1C(=O)O [Compound 65] NS

// fetch Viability given entry CC1(C)[C@@H]2CC[C@]1(C)[C@H](N1Cc3c(N)cccc3C1=O)C2 [Compound 95] NS

// fetch Viability given entry FC(F)(F)c1ccnc(/N=C2/c3ccccc3CN2c2cc(C(F)(F)F)ccn2)c1 [Compound 67] NS

// fetch Viability given entry O=C1c2ccccc2CN1c1ccc(C(F)(F)F)cc1 [Compound 68] NS
